# assayedSystem: SARS-CoV-2 S protein trimer (SARS-CoV-2, UniProt P0DTC2 14-1208)
# assayProcedure: Carterra SPR, DB format, S trimer
Hi there, I'd appreciate the recorded Kd for every entry that follows.
Field note: include the unit after the figure.

Consider the binder 2-2 (antibody, V domains shown, also called variant 2-2) VH: EVQLLESGGGLVQPGGSLRLSCAASGFTFSRHAMNWVRQAPGKGLEWVSGISGSGDETYYADSVKGRFTISRDNSKNTLYLQMNSLRAEDTAVYYCARDLPASYYDSSGYYWHNGMDVWGQGTLVTVSS VL: DIQMTQSPSSLSASVGDRVTITCRASQTINTYLNWYQQKPGKAPKLLIYSASTLQSGVPSRFSGSGSGTDFTLTISSLQPEDFATYYCQQSYSTFTFGQGTKVEIK and give its measured Kd.
1.2 nM

Proceed to 2-12 (antibody, V domains shown, also called variant 2-12) VH: EVQLLESGGGLVQPGGSLRLSCAASGFTFSDYPMNWVRQAPGKGLEWVSTISGSGGITFYADSVKGRFTISRDNSKNTLYLQMNSLRAEDTAVYYCVRHDEYSFDYWGQGTLVTVSS VL: DIQMTQSPSSLSASVGDRVTITCRASQSIDNYLNWYQQKPGKAPKLLIYGVSALQSGVPSRFSGSGSGTDFTLTISSLQPEDFATYYCQQSHSAPPYFFGQGTKVEIK
6.4 nM

Proceed to 2-8 (antibody, V domains shown, also called variant 2-8) VH: EVQLLESGGGLVQPGGSLRLSCAASGFTFSDFAMAWVRQAPGKGLEWVSAISGSGDITYYADSVKGRFTISRDNSKNTLYLQMNSLRAEDTAVYYCAREADGLHSPWHFDLWGQGTLVTVSS VL: DIQMTQSPSSLSASVGDRVTITCRASQSIDTYLNWYQQKPGKAPKLLIYAASALASGVPSRFSGSGSGTDFTLTISSLQPEDFATYYCQQSYSAPPYTFGQGTKVEIK
115 nM

Proceed to 2-4 (antibody, V domains shown, also called variant 2-4) VH: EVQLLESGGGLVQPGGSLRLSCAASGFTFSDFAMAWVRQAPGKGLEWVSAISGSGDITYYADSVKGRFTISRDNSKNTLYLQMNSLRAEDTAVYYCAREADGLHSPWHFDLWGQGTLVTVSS VL: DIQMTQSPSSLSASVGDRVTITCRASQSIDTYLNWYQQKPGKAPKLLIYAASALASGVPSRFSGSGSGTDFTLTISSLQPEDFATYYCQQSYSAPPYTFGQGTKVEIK
4340 nM

The measured values listed here are drawn from patent US20210355194A1.
